Reference source: ChEMBL document CHEMBL1150771

# Test Target: P2Y purinoceptor 2 (Homo sapiens, UniProt P41231)
# Sequence (P41231 whole entry): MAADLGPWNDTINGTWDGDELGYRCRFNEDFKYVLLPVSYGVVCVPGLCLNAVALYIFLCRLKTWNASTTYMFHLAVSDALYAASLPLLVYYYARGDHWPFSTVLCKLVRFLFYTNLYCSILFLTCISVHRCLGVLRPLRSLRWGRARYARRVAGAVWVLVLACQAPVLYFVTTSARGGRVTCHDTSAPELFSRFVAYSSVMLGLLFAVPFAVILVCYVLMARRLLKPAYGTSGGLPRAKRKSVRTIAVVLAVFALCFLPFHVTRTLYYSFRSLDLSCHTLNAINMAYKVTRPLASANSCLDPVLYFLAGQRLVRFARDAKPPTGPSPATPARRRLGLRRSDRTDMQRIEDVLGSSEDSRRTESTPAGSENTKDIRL
# Assay Remarks: Agonist activity at human P2Y2 receptor expressed in human 1321N1 cells assessed as [3H]inositol phosphate accumulation by scintillation proximity assay
pEC50: −log10 of the molar value.
Think of 6 as a floor: if pEC50 stands on it or above, it is Yes; beneath it, No.

Compound | Category Label
O=c1ccn([C@@H]2O[C@H](COP(=O)(O)OP(=O)(O)OP(=O)(O)OP(=O)(O)OC[C@@H]3O[C@@](O)(CO)[C@H](O)[C@H]3O)[C@@H](O)[C@H]2O)c(=O)[nH]1 | No
Nc1ccn([C@H]2C[C@H](O)[C@@H](COP(=O)(O)OP(=O)(O)OP(=O)(O)OP(=O)(O)OC[C@H]3O[C@@H](n4ccc(=O)[nH]c4=S)[C@H](O)[C@@H]3O)O2)c(=O)n1 | Yes
O=c1ccn([C@@H]2O[C@H](COP(=O)(O)OP(=O)(O)OP(=O)(O)OP(=O)(O)OCC(O)CO)[C@@H](O)[C@H]2O)c(=O)[nH]1 (stereo not given in full) | No
NC(=O)N[C@@H]1[C@H](O)[C@@H](COP(=O)(O)OP(=O)(O)OP(=O)(O)O)O[C@H]1n1ccc(=O)[nH]c1=O | No
Nc1ccn([C@H]2C[C@H](O)[C@@H](COP(=O)(O)OP(=O)(O)OP(=O)(O)OP(=O)(O)OC[C@H]3O[C@@H](n4ccc(=O)[nH]c4=O)[C@H](O)[C@@H]3O)O2)c(=O)n1 | Yes

====

Reported EC50 by item:
# Test Target: P2Y purinoceptor 6 (Homo sapiens, UniProt Q15077)
# Sequence (Q15077 whole entry): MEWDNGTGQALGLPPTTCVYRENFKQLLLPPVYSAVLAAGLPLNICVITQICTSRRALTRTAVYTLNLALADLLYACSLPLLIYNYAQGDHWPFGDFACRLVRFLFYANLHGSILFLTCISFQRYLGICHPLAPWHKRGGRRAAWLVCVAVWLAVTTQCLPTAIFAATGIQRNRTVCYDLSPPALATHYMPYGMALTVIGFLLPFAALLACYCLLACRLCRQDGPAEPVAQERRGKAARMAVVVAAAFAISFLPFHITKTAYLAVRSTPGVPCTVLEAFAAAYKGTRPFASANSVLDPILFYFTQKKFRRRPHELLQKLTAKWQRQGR
# Assay Remarks: Agonist activity at human P2Y6 receptor expressed in human 1321N1 cells assessed as [3H]inositol phosphate accumulation by scintillation proximity assay

Compound | EC50
O=c1ccn([C@@H]2O[C@H](COP(=O)(O)OP(=O)(O)OP(=O)(O)OP(=O)(O)O[C@H]3O[C@H](CO)[C@H](O)[C@H](O)[C@H]3O)[C@@H](O)[C@H]2O)c(=O)[nH]1 | 8.19 µM
O=c1ccn([C@@H]2O[C@H](COP(=O)(O)OP(=O)(O)OP(=O)(O)OP(=O)(O)O)[C@@H](O)[C@H]2O)c(=O)[nH]1 | 7.56 µM
NC(=O)N[C@@H]1[C@H](O)[C@@H](COP(=O)(O)OP(=O)(O)OP(=O)(O)O)O[C@H]1n1ccc(=O)[nH]c1=O | > 10 µM
O=c1ccn([C@@H]2O[C@H](COP(=O)(O)OP(=O)(O)OP(=O)(O)O)[C@@H](O)[C@H]2O)c(=O)[nH]1 [URIDINE TRIPHOSPHATE] | > 10 µM
O=c1ccn([C@@H]2O[C@H](COP(=O)(O)CP(=O)(O)O)[C@@H](O)[C@H]2O)c(=O)[nH]1 | 0.66 µM
